target: MMP2 (Homo sapiens, UniProt P08253); construct: purchased AnaSpec, San Jose, USA; assay: In vitro fluorometric MMP inhibition assay (SensoLyte 520 MMP-2); assay type: biochemical; settings: ratio of IC50 values; MMP1 IC50 divided by MMP2 IC50
Sequence (P08253 110-660, species assumed): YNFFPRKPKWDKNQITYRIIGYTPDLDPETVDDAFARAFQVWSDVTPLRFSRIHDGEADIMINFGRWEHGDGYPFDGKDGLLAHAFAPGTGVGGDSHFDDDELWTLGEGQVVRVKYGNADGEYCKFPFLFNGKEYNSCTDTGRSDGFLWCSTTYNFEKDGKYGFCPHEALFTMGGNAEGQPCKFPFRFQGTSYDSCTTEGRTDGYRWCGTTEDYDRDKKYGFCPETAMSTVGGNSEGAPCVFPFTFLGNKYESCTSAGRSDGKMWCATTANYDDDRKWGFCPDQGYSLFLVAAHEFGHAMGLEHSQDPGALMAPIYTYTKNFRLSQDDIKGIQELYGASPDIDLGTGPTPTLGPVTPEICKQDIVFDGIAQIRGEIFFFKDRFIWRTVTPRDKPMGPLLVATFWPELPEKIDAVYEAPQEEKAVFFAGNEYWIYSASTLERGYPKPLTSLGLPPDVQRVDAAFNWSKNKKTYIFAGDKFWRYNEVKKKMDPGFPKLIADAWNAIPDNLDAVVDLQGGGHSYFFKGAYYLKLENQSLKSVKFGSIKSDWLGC
Class satisfied: Selectivity MMP1/MMP2 at least 3. Class not satisfied: Selectivity MMP1/MMP2 below 3.

In [3]: df
Out[3]:
                                   molecule          group
0    O=C(O)CN(CC(=O)NO)S(=O)(=O)c1ccc(F)cc1      satisfied
1   O=C(O)CN(CC(=O)NO)S(=O)(=O)c1ccc(Br)cc1      satisfied
2       O=C(O)CN(CC(=O)NO)S(=O)(=O)c1ccccc1  not satisfied
3  O=C(O)CN(CC(=O)NO)S(=O)(=O)c1ccc(Oc2ccccc2)cc1 [Compound 10a]      satisfied
4   O=C(O)CN(CC(=O)NO)S(=O)(=O)c1ccc(Cl)cc1  not satisfied
5  O=C(O)CN(CC(=O)NO)S(=O)(=O)c1ccc(Oc2ccc(Br)cc2)cc1 [Compound 10d]      satisfied
6    O=C(O)CN(CC(=O)NO)S(=O)(=O)c1ccc(I)cc1  not satisfied

* * *

Reported log10(IC50) values for a set of molecules
target: MMP2 (Homo sapiens, UniProt P08253); construct: purchased AnaSpec, San Jose, USA; test: In vitro fluorometric MMP inhibition assay (SensoLyte 520 MMP-2); type: biochemical; details: mean ± SD of three independent experiments in duplicate
Readout Name: log10(IC50) (log10 of the value in nM)

>>> df
                                   molecule  result
0  O=C(O)CN(CC(=O)NO)S(=O)(=O)c1ccc(Oc2ccc(Br)cc2)cc1 [Compound 10d]    0.88
1   O=C(O)CN(CC(=O)NO)S(=O)(=O)c1ccc(Cl)cc1    1.61
2  O=C(O)CN(CC(=O)NO)S(=O)(=O)c1ccc(Oc2ccc(I)cc2)cc1 [Compound 10c]   -0.06
3    O=C(O)CN(CC(=O)NO)S(=O)(=O)c1ccc(I)cc1    1.43
4       O=C(O)CN(CC(=O)NO)S(=O)(=O)c1ccccc1    1.59
5    O=C(O)CN(CC(=O)NO)S(=O)(=O)c1ccc(F)cc1    1.08
6   O=C(O)CN(CC(=O)NO)S(=O)(=O)c1ccc(Br)cc1    1.28

* * *

Reported Selectivity MMP1/MMP9 values for a set of compounds
molecular target: MMP9 (Homo sapiens); construct: purchased AnaSpec, San Jose, USA; assay: In vitro fluorometric MMP inhibition assay (SensoLyte 520 MMP-9); format: biochemical; settings: ratio of IC50 values; MMP1 IC50 divided by MMP9 IC50
Readout Name: Selectivity MMP1/MMP9

>>> print(df.to_string())
                                   compound        tested_system  result
0       O=C(O)CN(CC(=O)NO)S(=O)(=O)c1ccccc1  MMP9 (Homo sapiens)    3.64
1  O=C(O)CN(CC(=O)NO)S(=O)(=O)c1ccc(Oc2ccc(I)cc2)cc1 [Compound 10c]  MMP9 (Homo sapiens)     467
2    O=C(O)CN(CC(=O)NO)S(=O)(=O)c1ccc(I)cc1  MMP9 (Homo sapiens)    5.36
3  O=C(O)CN(CC(=O)NO)S(=O)(=O)c1ccc(Oc2ccc(Br)cc2)cc1 [Compound 10d]  MMP9 (Homo sapiens)     820
4    O=C(O)CN(CC(=O)NO)S(=O)(=O)c1ccc(F)cc1  MMP9 (Homo sapiens)    3.57
5   O=C(O)CN(CC(=O)NO)S(=O)(=O)c1ccc(Br)cc1  MMP9 (Homo sapiens)    2.74
6  O=C(O)CN(CC(=O)NO)S(=O)(=O)c1ccc(Oc2ccccc2)cc1 [Compound 10a]  MMP9 (Homo sapiens)     387
7   O=C(O)CN(CC(=O)NO)S(=O)(=O)c1ccc(Cl)cc1  MMP9 (Homo sapiens)    3.39

* * *

target: MMP9 (Homo sapiens, UniProt P14780); construct: purchased AnaSpec, San Jose, USA; experiment: In vitro fluorometric MMP inhibition assay (SensoLyte 520 MMP-9); format: biochemical; details: mean ± SD of three independent experiments in duplicate
Sequence (P14780 94-707, species assumed): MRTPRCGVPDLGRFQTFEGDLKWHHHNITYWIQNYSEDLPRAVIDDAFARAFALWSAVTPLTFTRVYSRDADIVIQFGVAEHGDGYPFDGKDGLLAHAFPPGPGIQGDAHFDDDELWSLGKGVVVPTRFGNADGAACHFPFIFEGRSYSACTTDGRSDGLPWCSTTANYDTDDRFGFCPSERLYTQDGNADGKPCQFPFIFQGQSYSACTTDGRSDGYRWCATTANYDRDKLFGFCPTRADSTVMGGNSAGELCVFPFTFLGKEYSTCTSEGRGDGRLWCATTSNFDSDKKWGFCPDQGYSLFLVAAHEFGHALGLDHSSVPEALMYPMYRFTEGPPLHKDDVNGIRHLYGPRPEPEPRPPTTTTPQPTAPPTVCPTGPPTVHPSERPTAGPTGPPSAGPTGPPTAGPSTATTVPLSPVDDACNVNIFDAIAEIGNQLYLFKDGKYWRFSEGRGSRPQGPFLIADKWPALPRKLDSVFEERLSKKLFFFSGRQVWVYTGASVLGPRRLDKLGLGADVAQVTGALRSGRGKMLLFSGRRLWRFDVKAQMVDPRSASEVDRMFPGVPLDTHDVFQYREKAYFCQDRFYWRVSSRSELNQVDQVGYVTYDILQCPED
Readout Name: log10 IC50 (log10 of the value in nM)

                                   compound  result
0    O=C(O)CN(CC(=O)NO)S(=O)(=O)c1ccc(I)cc1    1.04
1   O=C(O)CN(CC(=O)NO)S(=O)(=O)c1ccc(Br)cc1    1.36
2  O=C(O)CN(CC(=O)NO)S(=O)(=O)c1ccc(Oc2ccc(Br)cc2)cc1 [Compound 10d]    0.21
3   O=C(O)CN(CC(=O)NO)S(=O)(=O)c1ccc(Cl)cc1    1.26
4       O=C(O)CN(CC(=O)NO)S(=O)(=O)c1ccccc1    1.15
5    O=C(O)CN(CC(=O)NO)S(=O)(=O)c1ccc(F)cc1    1.32
6  O=C(O)CN(CC(=O)NO)S(=O)(=O)c1ccc(Oc2ccc(I)cc2)cc1 [Compound 10c]    0.29

* * *

molecular target: MMP1 (Homo sapiens); construct: purchased AnaSpec, San Jose, USA; assay: In vitro fluorometric MMP inhibition assay (SensoLyte 520 MMP-1); assay type: biochemical; details: mean ± SD of three independent experiments in duplicate
Sequence (P03956 100-469, species assumed): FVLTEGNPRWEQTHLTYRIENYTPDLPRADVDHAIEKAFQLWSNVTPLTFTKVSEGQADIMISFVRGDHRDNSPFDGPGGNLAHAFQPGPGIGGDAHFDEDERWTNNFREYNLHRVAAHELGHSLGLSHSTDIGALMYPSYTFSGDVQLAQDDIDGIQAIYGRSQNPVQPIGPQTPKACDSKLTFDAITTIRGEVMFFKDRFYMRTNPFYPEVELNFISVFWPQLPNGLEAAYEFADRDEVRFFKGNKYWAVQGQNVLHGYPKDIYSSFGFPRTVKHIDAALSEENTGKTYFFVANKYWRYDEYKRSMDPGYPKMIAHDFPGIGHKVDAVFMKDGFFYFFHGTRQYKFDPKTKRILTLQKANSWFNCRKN
Readout Name: IC50

>>> df
                                   compound   result
0  O=C(O)CN(CC(=O)NO)S(=O)(=O)c1ccc(Oc2ccc(Br)cc2)cc1 [Compound 10d]  1320 nM
1       O=C(O)CN(CC(=O)NO)S(=O)(=O)c1ccccc1    51 nM
2    O=C(O)CN(CC(=O)NO)S(=O)(=O)c1ccc(F)cc1    75 nM
3   O=C(O)CN(CC(=O)NO)S(=O)(=O)c1ccc(Cl)cc1    61 nM
4    O=C(O)CN(CC(=O)NO)S(=O)(=O)c1ccc(I)cc1    59 nM
5   O=C(O)CN(CC(=O)NO)S(=O)(=O)c1ccc(Br)cc1    63 nM
6  O=C(O)CN(CC(=O)NO)S(=O)(=O)c1ccc(Oc2ccc(I)cc2)cc1 [Compound 10c]   910 nM

Hey, just so you know, these numbers are from paper PMC5708805.
